measured-on: Arginase-2, mitochondrial (Homo sapiens)
assay-remarks: in vitro enzyme assay to detect the production of urea directly proportional to the activity of Arginase II
Format: functional
Parameters: scale not given: in the data most compounds retested in dose-response had high values
measurement-conditions: 33.3 µM
value-type: Percent Effect (%)

molecule	measured-on	value-type	recorded-value
CN(C)S(=O)(=O)N1CC[C@]2(C[C@H](Oc3cccnc3)CO2)C1	Arginase-2, mitochondrial (Homo sapiens)	Percent Effect	8.91
Cc1ccc(C(=O)N2CCC3(CC2)COC(COc2ccccn2)C3)o1 (stereo unspecified)	Arginase-2, mitochondrial (Homo sapiens)	Percent Effect	-2.83
CC(C)c1ccc(O)c(C(=O)N2CCN(Cc3cscn3)CC2)c1	Arginase-2, mitochondrial (Homo sapiens)	Percent Effect	-6.1
COc1cc(CN(C)C(=O)Nc2cc(C)on2)ccc1SC	Arginase-2, mitochondrial (Homo sapiens)	Percent Effect	-24.2
Cn1cc(C(=O)N2CCCC(n3cccn3)C2)c2ccccc21 (stereo unspecified)	Arginase-2, mitochondrial (Homo sapiens)	Percent Effect	7.09
Cc1cc(=O)n(CC(=O)NCC2CCCO2)c(-c2ccc(F)cc2)n1 (stereo unspecified)	Arginase-2, mitochondrial (Homo sapiens)	Percent Effect	2.76
CCc1nc(CN(C)C2CCN(CCc3ccccn3)C2)no1 (stereo unspecified)	Arginase-2, mitochondrial (Homo sapiens)	Percent Effect	-3.55
CCOc1ncccc1NC(=O)NCC(O)c1ccccc1OC (stereo unspecified)	Arginase-2, mitochondrial (Homo sapiens)	Percent Effect	4.94
O=C(C1CCC1)N1CCCC1c1nnc2n1CCCCC2 (stereo unspecified)	Arginase-2, mitochondrial (Homo sapiens)	Percent Effect	33.3
Cc1ccc(-c2cn[nH]c2C2CCCN(c3nccc(N)n3)C2)cc1 (stereo unspecified)	Arginase-2, mitochondrial (Homo sapiens)	Percent Effect	-1.77
CN(CCCOc1ccccc1)C(=O)CN1CCc2cncnc2C1	Arginase-2, mitochondrial (Homo sapiens)	Percent Effect	-0.719
